target: full length SGK1 (Homo sapiens); construct: 125 μM full length SGK1 (Life Technologies Part #PR7358A); purchased Life Technologies PR7358A; assay: SGK1 inhibition Assay A (Caliper LabChip electrophoretic separation of fluorescent peptide substrate and phosphorylated product); format: biochemical; details: Assay A; 20 μM ATP, 40 min incubation; read-out: SGK1 IC50
Criterion: IC50 strictly under 0.03 µM. Met: 1. Not met: -1.

1) CC(=O)N1CC=C(c2cc(N3CCC[C@@H](NC(=O)c4ccnc(N5CC6(C5)CN(C(C)C)C6)n4)C3)c3c(N)ncnn23)C1 | -1
2) Nc1ncnn2c(-c3ccnc(F)c3)cc(N3CCC[C@@H](NC(=O)c4csc(Cl)c4)C3)c12 | 1
3) CC(=O)N1CC=C(c2cc(N3CCC[C@@H](NC(=O)c4ccnc(N5CCN(C)CC5)n4)C3)c3c(N)ncnn23)C1 | 1
4) COC(=O)N1CC=C(c2cc(N3CCC[C@@H](NC(=O)c4sc(C(F)F)cc4OCCN4CCOCC4)C3)c3c(N)ncnn23)C1 | 1
5) COC(=O)N1CC=C(c2cc(N3CCC[C@@H](NC(=O)c4sc(Cl)cc4O[C@@H]4C[C@H]5CC[C@@H](C4)N5C)C3)c3c(N)ncnn23)C1 | 1
6) CS(=O)(=O)c1ccc(-c2cc(N3CCC[C@@H](C(=O)NCc4ccccc4)C3)c3c(N)ncnn23)cc1 | -1

###

Target: full length SGK1 (Homo sapiens, UniProt O00141)
Construct: 125 μM full length SGK1 (Life Technologies Part #PR7358A); purchased Life Technologies PR7358A
Sequence (O00141 1-431): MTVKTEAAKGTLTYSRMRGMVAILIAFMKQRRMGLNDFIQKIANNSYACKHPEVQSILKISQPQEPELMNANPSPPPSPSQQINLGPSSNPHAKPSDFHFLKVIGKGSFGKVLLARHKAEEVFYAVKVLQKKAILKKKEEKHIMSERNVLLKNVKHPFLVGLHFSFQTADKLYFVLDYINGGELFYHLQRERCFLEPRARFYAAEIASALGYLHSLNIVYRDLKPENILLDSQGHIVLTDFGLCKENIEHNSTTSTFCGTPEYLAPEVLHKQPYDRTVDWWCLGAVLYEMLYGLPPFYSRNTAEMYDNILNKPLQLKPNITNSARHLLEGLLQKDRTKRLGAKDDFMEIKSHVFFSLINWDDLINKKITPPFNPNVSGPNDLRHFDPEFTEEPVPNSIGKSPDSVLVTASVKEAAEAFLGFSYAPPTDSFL
Assay: SGK1 inhibition Assay A (Caliper LabChip electrophoretic separation of fluorescent peptide substrate and phosphorylated product)
Format: biochemical
Settings: Assay A; 20 μM ATP, 40 min incubation; read-out: SGK1 IC50
Where a name gives a salt, the structure may show the parent alone.
Recorded IC50 by entry
REPORTED PROPERTY: IC50 (nM)

1) CC(=O)N1CC=C(c2cc(N3CCC[C@@H](NC(=O)c4cc(-c5ccccc5)ncn4)C3)c3c(N)ncnn23)C1 [Example 492] | 53
2) CC(=O)N1CC=C(c2cc(N3CCC[C@@H](NC(=O)c4snnc4C)C3)c3c(N)ncnn23)C1 [Example 473] | 107
3) COc1c(C(=O)N[C@@H]2CCCN(c3cc(-c4ccnc(F)c4)n4ncnc(N)c34)C2)csc1Cl [Example 158] | 6
4) COc1cc(-c2cc(N3CCC[C@@H](NC(=O)c4ccc(Cl)s4)C3)c3c(N)ncnn23)ccc1C(N)=O [Example 207] | 4
5) CC(=O)N1CC=C(c2cc(N3CCC[C@@H](NC(=O)c4cc(-c5cncnc5)n[nH]4)C3)c3c(N)ncnn23)C1 [Example 501] | 292
6) CN(C)CCOc1cc(Cl)sc1C(=O)N[C@@H]1CCCN(c2cc(C3=CCN(C(=O)C4CC(F)(F)C4)CC3)n3ncnc(N)c23)C1 [Example 184, TFA] | 36
7) CC(=O)N1CC=C(c2cc(N3CCC[C@@H](NC(=O)N4CC[C@@H](O)C4)C3)c3c(N)ncnn23)C1 [Example 874] | 482

###

Target: full length SGK1 (Homo sapiens)
Construct: 125 μM full length SGK1 (Life Technologies Part #PR7358A); purchased Life Technologies PR7358A
Sequence (O00141 1-431): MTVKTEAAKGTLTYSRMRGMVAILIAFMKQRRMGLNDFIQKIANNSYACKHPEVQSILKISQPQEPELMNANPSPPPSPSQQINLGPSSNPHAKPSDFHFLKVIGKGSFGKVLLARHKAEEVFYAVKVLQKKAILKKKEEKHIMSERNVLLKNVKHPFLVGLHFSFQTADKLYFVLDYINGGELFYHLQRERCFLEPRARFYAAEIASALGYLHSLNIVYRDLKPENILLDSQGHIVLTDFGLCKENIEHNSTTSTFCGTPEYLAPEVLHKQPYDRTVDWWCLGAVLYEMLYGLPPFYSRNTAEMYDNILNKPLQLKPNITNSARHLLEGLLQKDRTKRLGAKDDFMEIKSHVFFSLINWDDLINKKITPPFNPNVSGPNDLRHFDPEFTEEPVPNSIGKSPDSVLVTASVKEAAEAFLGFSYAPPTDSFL
Test: SGK1 inhibition Assay A (Caliper LabChip electrophoretic separation of fluorescent peptide substrate and phosphorylated product)
Type: biochemical
Conditions: Assay A; 20 μM ATP, 40 min incubation; read-out: SGK1 IC50
pIC50: −log10 of the molar value.
REPORTED PROPERTY: pIC50

1. CC(=O)N1CC=C(c2cc(N3CCC[C@@H](NC(=O)c4cccc(NCCS(C)(=O)=O)n4)C3)c3c(N)ncnn23)C1 | 7.62
2. Nc1ncnn2c(-c3ccnc(C(F)F)c3)cc(N3CCC[C@@H](NC(=O)c4ccc(-c5ccnc(C(F)F)c5)s4)C3)c12 | 8.40
3. NC(=O)c1ccc(-c2cc(N3CCC[C@@H](NC(=O)c4sc(Cl)cc4OC4CC5(CNC5)C4)C3)c3c(N)ncnn23)cc1F | 8.70
4. Cc1cccc(C(=O)N[C@@H]2CCCN(c3cc(-c4ccc(S(C)(=O)=O)cc4)n4ncnc(N)c34)C2)c1 | 7.96
5. CC(=O)N1CC=C(c2cc(N3CCC[C@@H](NC(=O)c4sc(Cl)cc4OC4CCN(C)CC4F)C3)c3c(N)ncnn23)C1 (stereo partly shown) [Example 604] | 8.30
6. Nc1ncnn2c(-c3cc(F)nc(F)c3)cc(N3CCC[C@@H](NC(=O)c4ccc(Cl)s4)C3)c12 | 7.92
7. CC(=O)NCCOc1cc(C(F)F)sc1C(=O)N[C@@H]1CCCN(c2cc(-c3ccc(=O)n(CC(F)F)c3)n3ncnc(N)c23)C1 [Example 427] | 7.92

###

pIC50 by entry:
biological target: full length SGK1 (Homo sapiens, UniProt O00141); construct: 125 μM full length SGK1 (Life Technologies Part #PR7358A); purchased Life Technologies PR7358A; experiment: SGK1 inhibition Assay A (Caliper LabChip electrophoretic separation of fluorescent peptide substrate and phosphorylated product); format: biochemical; conditions: Assay A; 20 μM ATP, 40 min incubation; read-out: SGK1 IC50
pIC50: −log10 of the molar value.
REPORTED PROPERTY: pIC50

1. N#Cc1ccc(-c2ccc(C(=O)N[C@@H]3CCCN(c4cc(-c5ccnc(C(F)F)c5)n5ncnc(N)c45)C3)s2)cc1 | 8.15
2. Nc1ncnn2c(-c3ccc(=O)n(CC(F)F)c3)cc(N3CCC[C@@H](NC(=O)c4sc(Cl)cc4OC4CN(CC(F)F)C4)C3)c12 | 7.54
3. NCC(=O)N1CC=C(c2cc(N3CCC[C@@H](NC(=O)c4ccc(Cl)s4)C3)c3c(N)ncnn23)C1 | 8.15
4. Nc1ncnn2c(-c3ccc(OC(F)F)nc3)cc(N3CCC[C@@H](NC(=O)c4ccc(Cl)s4)C3)c12 | 7.70
5. COC(=O)N1CC=C(c2cc(N3CCCC(NC(=O)c4sc(Cl)cc4OC4CCNC(C)(C)C4)C3)c3c(N)ncnn23)C1 (single isomer, unassigned) [Example 630] | 8.70
6. CC(=O)N1CC=C(c2cc(N3CCC[C@@H](NC(=O)c4ccc(-n5ccnc5)cc4)C3)c3c(N)ncnn23)C1 | 7.17

###

biological target: full length SGK1 (Homo sapiens); construct: 125 μM full length SGK1 (Life Technologies Part #PR7358A); purchased Life Technologies PR7358A; assay: SGK1 inhibition Assay A (Caliper LabChip electrophoretic separation of fluorescent peptide substrate and phosphorylated product); type: biochemical; conditions: Assay A; 20 μM ATP, 40 min incubation; read-out: SGK1 IC50
pIC50: −log10 of the molar value. Where a name gives a salt, the structure may show the parent alone.
Catalogue of compounds with associated pIC50
REPORTED PROPERTY: pIC50

1) Cc1nc(C)c(C(=O)N[C@@H]2CCCN(c3cc(-c4ccnc(C#N)c4)n4ncnc(N)c34)C2)s1 | 7.49
2) CS(=O)(=O)c1ccc(-c2cc(N3CCC[C@@H](NC(=O)c4cccc(-c5cnco5)c4)C3)c3c(N)ncnn23)cc1 | 7.89
3) CN(C)CCOc1c(C(=O)N[C@@H]2CCCN(c3cc(-c4ccc(C#N)c(F)c4)n4ncnc(N)c34)C2)[nH]c2ccccc12 | 7.44
4) CCn1ccc(C(=O)N[C@@H]2CCCN(c3cc(C4=CCN(C(C)=O)C4)n4ncnc(N)c34)C2)n1 | 6.87
5) CS(=O)(=O)N1CC=C(c2cc(N3CCC[C@@H](NC(=O)c4ccccc4)C3)c3c(N)ncnn23)C1 [Example 113, TFA] | 7.64
6) Nc1ccc2[nH]nc(C(=O)N[C@@H]3CCCN(c4cc(-c5cncnc5)n5ncnc(N)c45)C3)c2c1 | 6.29
7) NC(=O)c1ccc(-c2cc(N3CCC[C@@H](NC(=O)c4sc5ccccc5c4OC4CNC4)C3)c3c(N)ncnn23)cn1 | 7.60
